# testSystem: 肺炎支原体天然抗原(购自Microbix) (Mycoplasma pneumoniae)
# experimentalDetails: indirect ELISA, antigen coated at 2 ug/ml, antibody 7.5 ng/ml
readout: OD450 (参考630nm) (OD)
// note: answer is a bare numeric in OD

Quick note, OD450 (参考630nm) for Anti-MP-22A9mut5 (antibody, mouse IgG1, kappa, V domains shown) VH: QAYLQQSGAELVRSGASVKMSCKASGYTFTTYNMHWVKQTPGQGLEWIGYVHPGYGITYYSQKFKGKATLTADTSSSTAYMLLSSITSEDSAVYFCTRSYYGYSYWFFDVWGAGTTVTVSS VL: NIVMTQSPKSVSMSVGERVTLNCKASENVGSYVAWYQQKPDRSPKLLIHGASNRYTGVPDRFTGSGSTTDFTITISSVQAEDLADYHCGQTYNYPYTFGGGTKLEIKR landed at 1.68

Value of measured OD450 (参考630nm) for the entry Anti-MP-22A9mut3 (antibody, mouse IgG1, kappa, V domains shown) VH: QAYLQQSGAELVRSGASVKMSCKASGYTFTTYNMHWVKQTPGQGLEWIGYVHPGYGITYYSQKFKGKATITADTSSSTAYMLLSSLTSEDSAVYFCTRSYYGYSYWFFDVWGAGTTVTVSS VL: NIVMTQSPKSVSMSVGERVTLNCKASENVGSYVAWYQQKPDRSPKLLIHGASNRYTGVPDRFTGSGSTTDFTLTISSVQAEDLADYHCGQTYNYPYTFGGGTKLEIKR : 1.67

The origin of these recorded values is patent CN116693676A.
